system: HCC1806; test: Cell viability (CellTiter-Glo), HCC1806; type: cell-based; conditions: Homo sapiens; HCC1806 cell line, 3-4 days of culture
Measurement kind: IC50 (µM)
Numbers only, in µM.

Query: Any idea what IC50 was measured for CCc1n(CC(=O)O[C@@H]2C[C@H](C)CC[C@H]2C(C)C)c2ccccc2[n+]1C.[Cl-] [Gboxin] ?
Reply: 3.18

----------
system: HH; test: Cell viability (CellTiter-Glo), HH; assay type: cell-based; details: Homo sapiens; HH cell line, 3-4 days of culture
Measurement kind: pIC50
Give bare numbers, as −log10 of the molar value.

Query: Any idea what pIC50 was measured for `CCc1n(CC(=O)O[C@@H]2C[C@H](C)CC[C@H]2C(C)C)c2ccccc2[n+]1C.[Cl-]` ?
Reply: 5.57

----------
system: U-251 MG; experiment: Cell viability (CellTiter-Glo), U-251 MG; format: cell-based; details: Homo sapiens; U-251 MG cell line, 3-4 days of culture
Measurement kind: IC50 (µM)
One number for each entry, in µM.

Query: Any idea what IC50 was measured for `CCc1n(CC(=O)O[C@@H]2C[C@H](C)CC[C@H]2C(C)C)c2ccccc2[n+]1C.[Cl-]` ?
Reply: 16.7

----------
system: H9; test: Cell viability (CellTiter-Glo), H9; assay type: cell-based; conditions: Homo sapiens; H9 cell line, 3-4 days of culture
Measurement kind: pIC50
One number for each entry, as −log10 of the molar value.

Query: Any idea what pIC50 was measured for `CCc1n(CC(=O)O[C@@H]2C[C@H](C)CC[C@H]2C(C)C)c2ccccc2[n+]1C.[Cl-]` ?
Reply: 5.48

----------
tested on: SNU-449; assay: Cell viability (CellTiter-Glo), SNU-449; assay type: cell-based; settings: Homo sapiens; SNU-449 cell line, 3-4 days of culture
Measurement kind: IC50

Query: Any idea what IC50 was measured for `CCc1n(CC(=O)O[C@@H]2C[C@H](C)CC[C@H]2C(C)C)c2ccccc2[n+]1C.[Cl-]` ?
Reply: > 30 µM

----------
test system: PC-3; experiment: Cell viability (CellTiter-Glo), PC-3; type: cell-based; details: Homo sapiens; PC-3 cell line, 3-4 days of culture
Measurement kind: IC50 (µM)
Give bare numbers, in µM.

Query: Any idea what IC50 was measured for `CCc1n(CC(=O)O[C@@H]2C[C@H](C)CC[C@H]2C(C)C)c2ccccc2[n+]1C.[Cl-]` ?
Reply: 21.3

----------
test system: PANC-1; assay: Cell viability (CellTiter-Glo), PANC-1; type: cell-based; settings: Homo sapiens; PANC-1 cell line, 3-4 days of culture
Measurement kind: IC50 (µM)
Numbers only, in µM.

Query: Any idea what IC50 was measured for `CCc1n(CC(=O)O[C@@H]2C[C@H](C)CC[C@H]2C(C)C)c2ccccc2[n+]1C.[Cl-]` ?
Reply: 12

----------
Test system: GAK
Assay: Cell viability (CellTiter-Glo), GAK
Assay type: cell-based
Details: GAK cell line, 3-4 days of culture
Procedure: Cell viability was detected using the Promega CellTiter-Glo kit, the kit reflected cell viability by directly measuring intracellular ATP content. The inhibitory effect (IC50 value) of Gboxin, a mitochondrial oxidative phosphorylation pathway inhibitor, on different tumor cell lines was tested in the Example. The name, source, and culture condition of each tumor cell line were as follows: Cell line GAK (JCRB, No. JCRB0180) was cultured in 20% fetal bovine serum-containing Ham's F12 medium (+P/S). […]
Measurement kind: IC50 (µM)
Answers are plain numbers, in µM.

Query: Any idea what IC50 was measured for CCc1n(CC(=O)O[C@@H]2C[C@H](C)CC[C@H]2C(C)C)c2ccccc2[n+]1C.[Cl-] [Gboxin] ?
Reply: 7.05

----------
tested on: COLO 320HSR; test: Cell viability (CellTiter-Glo), COLO 320HSR; type: cell-based; conditions: Homo sapiens; COLO 320HSR cell line, 3-4 days of culture
pIC50: −log10 of the molar value.
Measurement kind: pIC50

Query: Identify the measured pIC50 of `CCc1n(CC(=O)O[C@@H]2C[C@H](C)CC[C@H]2C(C)C)c2ccccc2[n+]1C.[Cl-]` for COLO 320HSR.
Reply: < 4.52

----------
test system: 769-P; assay: Cell viability (CellTiter-Glo), 769-P; type: cell-based; details: Homo sapiens; 769-P cell line, 3-4 days of culture
pIC50: −log10 of the molar value.
Measurement kind: pIC50

Query: Identify the measured pIC50 of `CCc1n(CC(=O)O[C@@H]2C[C@H](C)CC[C@H]2C(C)C)c2ccccc2[n+]1C.[Cl-]` for 769-P.
Reply: < 4.52

----------
tested on: Gp2D; experiment: Cell viability (CellTiter-Glo), Gp2D; assay type: cell-based; details: Homo sapiens; Gp2D cell line, 3-4 days of culture
Measurement kind: pIC50
Answers are plain numbers, as −log10 of the molar value.

Query: Any idea what pIC50 was measured for `CCc1n(CC(=O)O[C@@H]2C[C@H](C)CC[C@H]2C(C)C)c2ccccc2[n+]1C.[Cl-]` ?
Reply: 4.88

----------
tested on: G-361; assay: Cell viability (CellTiter-Glo), G-361; format: cell-based; conditions: Homo sapiens; G-361 cell line, 3-4 days of culture
Measurement kind: pIC50
Give bare numbers, as −log10 of the molar value.

Query: Any idea what pIC50 was measured for `CCc1n(CC(=O)O[C@@H]2C[C@H](C)CC[C@H]2C(C)C)c2ccccc2[n+]1C.[Cl-]` ?
Reply: 5.41
